Reference for the values: patent US20060235076A1

test system: MRSA; experiment: Potentiating effect of galloyl quinic acid derivatives for the antibacterial activity of oxacillin (agar plate dilution method, MIC); format: cell-based, Staphylococcus aureus; conditions: ATCC 6538; with 25 μg/ml of compound
Catalogue of Oxacillin MIC values

// below: answered compounds
compound | Oxacillin MIC
O=C(OC1CC(O)(C(=O)O)CC(O)C1OC(=O)c1cc(O)c(O)c(O)c1)c1cc(O)c(O)c(O)c1 (stereo not shown) | <0.5 µg/mL
COC(=O)C1(O)CC(OC(=O)c2cc(O)c(O)c(O)c2)C(OC(=O)c2cc(O)c(O)c(O)c2)C(OC(=O)c2cc(O)c(O)c(O)c2)C1 (stereo not shown) | <0.5 µg/mL
O=C(OC1CC(O)(C(=O)O)CC(OC(=O)c2cc(O)c(O)c(O)c2)C1OC(=O)c1cc(O)c(O)c(O)c1)c1cc(O)c(O)c(O)c1 (stereo not shown) | <0.5 µg/mL

Next:
Prompt: Which measured Oxacillin MIC value corresponds to COC(=O)C1(O)CC(O)C(OC(=O)c2cc(O)c(O)c(O)c2)C(OC(=O)c2cc(O)c(O)c(O)c2)C1 (stereo not shown) ?
Completion: <0.063 µg/mL

----------
tested on: MRSA and MSSA; experiment: Antibacterial activity of gallic acid, various gallates and multivalent phenol derivatives alone (agar plate dilution method, MIC); assay type: cell-based, Staphylococcus aureus; conditions: Staphylococcus aureus, MRSA #20; read-out: MIC alone
Listing of recorded MIC by entry.
Unit µg/mL implied. Number only.

Past entries and their recorded results:
molecule | observed.measurement
O=C(O)c1cc(O)c(O)c(O)c1 [Gallic acid, gallic acid, reference compound] | 62.5
CCCCOC(=O)c1cc(O)c(O)c(O)c1 [Butyl gallate, n-butyl gallate] | 125

Prompt: Which MIC value is on record for CCCCCCCCCCOC(=O)c1cc(O)c(O)c(O)c1 [Decyl gallate, n-decyl gallate] ?
Completion: 15.7

Prompt: Form field: reported MIC of CCCOC(=O)c1cc(O)c(O)c(O)c1 [Propyl gallate, n-propyl gallate]
Completion: 125

Prompt: What does the record list as MIC for CCCCCCCOC(=O)c1cc(O)c(O)c(O)c1 [Heptyl gallate, n-heptyl gallate] ?
Completion: 31.3

Prompt: Given the molecule CCCCCCOC(=O)c1cc(O)c(O)c(O)c1 [Hexyl gallate, n-hexyl gallate] , what is its reported MIC?
Completion: 62.5

Prompt: Request the reported MIC associated with COC(=O)c1cc(O)c(O)c(O)c1 [Methyl gallate, methyl gallate]
Completion: 250

Prompt: So what's the measured MIC for this one? CCCCCCCCOC(=O)c1cc(O)c(O)c(O)c1 [Octyl gallate, n-octyl gallate]
Completion: 31.3

Prompt: Returns the measured MIC for the input molecule. Input: CCOC(=O)c1cc(O)c(O)c(O)c1 [Ethyl gallate, ethyl gallate]
Completion: 125

Prompt: So what's the measured MIC for this one? CCCCCOC(=O)c1cc(O)c(O)c(O)c1 [Pentyl gallate, n-pentyl gallate]
Completion: 62.5

Prompt: Return reported MIC; argument: CCCCCCCCCOC(=O)c1cc(O)c(O)c(O)c1 [Nonyl gallate, n-nonyl gallate]
Completion: 15.7

----------
The molecules listed here are annotated with their MIC50.
test system: MRSA and MSSA; experiment: Antibacterial activity of gallic acid, various gallates and multivalent phenol derivatives alone (agar plate dilution method, MIC); assay type: cell-based, Staphylococcus aureus; details: Staphylococcus aureus
Note: unit µg/mL is implicit; provide only the numeric part.

Recorded MIC50, per entry:
molecule | assay.system | observed.measurement
CC(C)CCOC(=O)c1ccc(O)cc1 [Isoamyl 4-hydroxybenzoate] | MRSA and MSSA | 62.5
CCOC(=O)c1cc(O)c(O)c(O)c1 [Ethyl gallate, ethyl gallate] | MRSA and MSSA | 125
CCCCCCCOC(=O)c1cc(O)c(O)c(O)c1 [Heptyl gallate, n-heptyl gallate] | MRSA and MSSA | 31.3

# context switch: different molecule, same MIC50
Prompt: Recorded MIC50 for CCCCCCCCOC(=O)c1cc(O)c(O)c(O)c1 [Octyl gallate, n-octyl gallate] , please?
Completion: 31.3

----------
system: MRSA; assay: Potentiating effect of galloyl quinic acid derivatives for the antibacterial activity of oxacillin (agar plate dilution method, MIC); format: cell-based, Staphylococcus aureus; conditions: MRSA 1; with 25 μg/ml of compound
Each entry below carries its recorded Oxacillin MIC.
Write down the numeric answer in µg/mL and omit the unit.

molecule | Oxacillin MIC [µg/mL]
O=C(OC1CC(O)(C(=O)O)CC(OC(=O)c2cc(O)c(O)c(O)c2)C1OC(=O)c1cc(O)c(O)c(O)c1)c1cc(O)c(O)c(O)c1 (stereo not shown) | 32

Prompt: What value of Oxacillin MIC has been reported for the following molecule? COC(=O)C1(O)CC(O)C(OC(=O)c2cc(O)c(O)c(O)c2)C(OC(=O)c2cc(O)c(O)c(O)c2)C1 (stereo not shown)
Completion: 128

----------
test system: MRSA and MSSA; assay: Antibacterial activity of gallic acid, various gallates and multivalent phenol derivatives alone (agar plate dilution method, MIC); assay type: cell-based, Staphylococcus aureus; settings: Staphylococcus aureus, MRSA #17; read-out: MIC alone
quantity: MIC (µg/mL)
Lab book: enter the figure in µg/mL, no units written.

compound | MIC (µg/mL)
CCCCCCOC(=O)c1cc(O)c(O)c(O)c1 [Hexyl gallate, n-hexyl gallate] | 62.5
O=C(O)c1cc(O)c(O)c(O)c1 [Gallic acid, gallic acid, reference compound] | 62.5
CCCOC(=O)c1cc(O)c(O)c(O)c1 [Propyl gallate, n-propyl gallate] | 62.5
CCCCCCCOC(=O)c1cc(O)c(O)c(O)c1 [Heptyl gallate, n-heptyl gallate] | 31.3
CCCCCCCCOC(=O)c1cc(O)c(O)c(O)c1 [Octyl gallate, n-octyl gallate] | 31.3
CCCCOC(=O)c1cc(O)c(O)c(O)c1 [Butyl gallate, n-butyl gallate] | 125

Query compound follows.
Prompt: Requested read-out MIC, target or system MRSA and MSSA, entry CCCCCCCCCOC(=O)c1cc(O)c(O)c(O)c1 [Nonyl gallate, n-nonyl gallate]
Completion: 15.7

----------
tested on: MRSA and MSSA; test: Antibacterial activity of gallic acid, various gallates and multivalent phenol derivatives alone (agar plate dilution method, MIC); format: cell-based, Staphylococcus aureus; conditions: Staphylococcus aureus, MSSA #1029; read-out: MIC alone
quantity: MIC (µg/mL)
Express the result in µg/mL but write the number alone.

compound | MIC, µg/mL
CCCCCCCCCCOC(=O)c1cc(O)c(O)c(O)c1 [Decyl gallate, n-decyl gallate] | 15.7
COC(=O)c1cc(O)c(O)c(O)c1 [Methyl gallate, methyl gallate] | 62.5

Prompt: Query (compound): CCCCCCCCOC(=O)c1cc(O)c(O)c(O)c1 [Octyl gallate, n-octyl gallate] ; field requested: MIC
Completion: 31.3

Prompt: Quick one: MIC of CCCCOC(=O)c1cc(O)c(O)c(O)c1 [Butyl gallate, n-butyl gallate] ?
Completion: 62.5

----------
Here the recorded Oxacillin MIC is given for each entry.
Tested on: MRSA
Assay: Potentiating effect of galloyl quinic acid derivatives for the antibacterial activity of oxacillin (agar plate dilution method, MIC)
Type: cell-based, Staphylococcus aureus
Details: MRSA 12; with 12.5 μg/ml of compound
Method: According to the agar plate dilution method defined by Japan Society of Chemotherapy, MIC (Minimum inhibitory concentration) was determined. […] It was confirmed that the known substances shown below were contained in “Tara” and their MICs were determined as described in example 2 with respect to the effects of the combination use with oxacillin

Known results for molecules:
molecule | observed.measurement
O=C(OC1CC(O)(C(=O)O)CC(O)C1OC(=O)c1cc(O)c(O)c(O)c1)c1cc(O)c(O)c(O)c1 (stereo not shown) [compound 4] | >256 µg/mL
O=C(OC1CC(O)(C(=O)O)CC(OC(=O)c2cc(O)c(O)c(O)c2)C1OC(=O)c1cc(O)c(O)c(O)c1)c1cc(O)c(O)c(O)c1 (stereo not shown) [compound 3] | 8 µg/mL
COC(=O)C1(O)CC(O)C(OC(=O)c2cc(O)c(O)c(O)c2)C(OC(=O)c2cc(O)c(O)c(O)c2)C1 (stereo not shown) [compound 1] | 16 µg/mL

Consider the record given below.
Prompt: Could you share which Oxacillin MIC value was measured for COC(=O)C1(O)CC(OC(=O)c2cc(O)c(O)c(O)c2)C(OC(=O)c2cc(O)c(O)c(O)c2)C(OC(=O)c2cc(O)c(O)c(O)c2)C1 (stereo not shown) [compound 2] ?
Completion: 256 µg/mL

----------
Tested on: MRSA
Experiment: Potentiating effect of galloyl quinic acid derivatives for the antibacterial activity of oxacillin (agar plate dilution method, MIC)
Type: cell-based, Staphylococcus aureus
Conditions: MRSA 4; with 50 μg/ml of compound
Method: According to the agar plate dilution method defined by Japan Society of Chemotherapy, MIC (Minimum inhibitory concentration) was determined. […] It was confirmed that the known substances shown below were contained in “Tara” and their MICs were determined as described in example 2 with respect to the effects of the combination use with oxacillin
// values below are reported Oxacillin MIC

# count of solved cases: 2
compound | assay.system | observed.measurement
COC(=O)C1(O)CC(O)C(OC(=O)c2cc(O)c(O)c(O)c2)C(OC(=O)c2cc(O)c(O)c(O)c2)C1 (stereo not shown) | MRSA | 32 µg/mL
O=C(OC1CC(O)(C(=O)O)CC(O)C1OC(=O)c1cc(O)c(O)c(O)c1)c1cc(O)c(O)c(O)c1 (stereo not shown) | MRSA | >256 µg/mL

Prompt: Return reported Oxacillin MIC; argument: O=C(OC1CC(O)(C(=O)O)CC(OC(=O)c2cc(O)c(O)c(O)c2)C1OC(=O)c1cc(O)c(O)c(O)c1)c1cc(O)c(O)c(O)c1 (stereo not shown)
Completion: 2 µg/mL

Prompt: Entry COC(=O)C1(O)CC(OC(=O)c2cc(O)c(O)c(O)c2)C(OC(=O)c2cc(O)c(O)c(O)c2)C(OC(=O)c2cc(O)c(O)c(O)c2)C1 (stereo not shown) has what Oxacillin MIC?
Completion: 256 µg/mL
